target: VAV1 (Homo sapiens, UniProt P15498+Q96SW2); construct: A heterozygous VAV1 C-terminal HiBiT knock-in pool was generated at Monte Rosa Therapeutics from a clonal Jurkat cell; endogenous in cells; host or cells: Jurkat clone stably expressing LgBiT, homozygous GSPT1-G575N; heterozygous VAV1-HiBiT knock-in pool; experiment: VAV1 degradation activity, VAV1-HiBiT knock-in Jurkat luminescence assay (Example A, Table 1); format: cell-based; settings: Jurkat, VAV1-HiBiT knock-in Jurkat cells, luminescence read at 6 and 24 hours; read-out: VAV1 Dmax %
Hi, to clarify the labels: 1 covers Dmax from 80% upward, -1 covers anything below 80%.

| Compound | Answer label |
| --- | --- |
| O=C1CCC(c2cccc(-c3ccc(OCCCO)cc3)c2Cl)C(=O)N1 (centres unmarked) | -1 |
| N#Cc1ccc(-c2cccc(C3CCC(=O)NC3=O)c2Cl)cc1 (centres unmarked) | -1 |
| Cn1ccc(COc2ccc(-c3ccc(Cl)c(C4CCC(=O)NC4=O)c3)c(Cl)c2)n1 (centres unmarked) | -1 |
| O=C1CC[C@H](c2cccc(-c3ccc(-n4ccccc4=O)cc3)c2Cl)C(=O)N1 | 1 |
| CN1CC(=O)N(c2ccc(-c3cccc(C4CCC(=O)NC4=O)c3Cl)cc2)c2cccnc21 (centres unmarked) | 1 |
| O=C1CCC(c2cccc(-c3ccc(N4CCCC4=O)cc3)c2Cl)C(=O)N1 (centres unmarked) | -1 |
| COc1ccnc(Cc2ccc(-c3cccc(C4CCC(=O)NC4=O)c3Cl)cc2)n1 (centres unmarked) | 1 |

* * *

target: VAV1 (Homo sapiens, UniProt P15498+Q96SW2); construct: A heterozygous VAV1 C-terminal HiBiT knock-in pool was generated at Monte Rosa Therapeutics from a clonal Jurkat cell; endogenous in cells; host or cells: Jurkat clone stably expressing LgBiT, homozygous GSPT1-G575N; heterozygous VAV1-HiBiT knock-in pool; assay: VAV1 degradation activity, VAV1-HiBiT knock-in Jurkat luminescence assay (Example A, Table 1); type: cell-based; conditions: Jurkat, VAV1-HiBiT knock-in Jurkat cells, luminescence read at 6 and 24 hours; read-out: VAV1 Dmax %
The following compounds are listed with their measured Dmax values.
Endpoint: Dmax (%)

| Compound | Numeric result |
| --- | --- |
| O=C1CCC(c2cccc(-c3ccc(N4CC5CC5CC4=O)cc3)c2Cl)C(=O)N1 (centres unmarked) | 96 |
| CC(C)(c1ccc(-c2cccc(C3CCC(=O)NC3=O)c2Cl)cc1)n1ccccc1=O (centres unmarked) | 90.1 |
| O=C1CCC(c2cccc(-c3ccc(Cc4ccco4)cc3)c2Cl)C(=O)N1 (centres unmarked) | 97.2 |
| Cn1cnc(Cn2ncc3cc(-c4cccc(C5CCC(=O)NC5=O)c4Cl)ccc32)c1 (centres unmarked) | 99.1 |
| O=C1CCC(c2cccc(-c3ccc(-n4ccc(F)cc4=O)cc3)c2Cl)C(=O)N1 (centres unmarked) | 95.2 |
| Cc1cccc(=O)n1-c1ccc(-c2cccc(C3CCC(=O)NC3=O)c2Cl)cn1 (centres unmarked) | 90.7 |
| CN1CCN(CCOc2ccc(-c3cccc(C4CCC(=O)NC4=O)c3Cl)cc2)CC1 (centres unmarked) | 81.7 |
| O=C1CCC(c2cccc(-c3ccc(CN4C(=O)CCCC4C(F)(F)F)cc3)c2Cl)C(=O)N1 (centres unmarked) | 90.2 |

* * *

Measured Dmax values are reported for all entries that follow.
Molecular target: VAV1 (Homo sapiens, UniProt P15498+Q96SW2)
Construct: A heterozygous VAV1 C-terminal HiBiT knock-in pool was generated at Monte Rosa Therapeutics from a clonal Jurkat cell; endogenous in cells; host or cells: Jurkat clone stably expressing LgBiT, homozygous GSPT1-G575N; heterozygous VAV1-HiBiT knock-in pool
Experiment: VAV1 degradation activity, VAV1-HiBiT knock-in Jurkat luminescence assay (Example A, Table 1)
Assay type: cell-based
Settings: Jurkat, VAV1-HiBiT knock-in Jurkat cells, luminescence read at 6 and 24 hours; read-out: VAV1 Dmax %
Description: Cells were plated at 10,000 cells per well using Multiflo (BioTek) or Multi Drop Combi (Thermo Fisher) in 384-well white solid bottom plates (Corning, 3570BC) in 25 ul volume in RPMI 1640 media (Thermo Fischer, 22400105) containing 10% FBS (Corning, 35-075-CV), 1% Penicillin/Streptomycin (ThermoFisher Scientific, 15140-122), and 1% Endurazine (Nano-Glo Endurazine Live Cell Substrate (Promega, N2571)). Cells were incubated for ˜16 hours at 37° C., 5% CO2. […]
Endpoint: Dmax (%)

| Compound | Endpoint | Readout units | Numeric result |
| --- | --- | --- | --- |
| CN1CCCN(Cc2ncc(-c3cccc(C4CCC(=O)NC4=O)c3Cl)cc2F)C1=O (centres unmarked) | Dmax | % | 80.2 |
| CN1CC(=O)N(Cc2ccc(-c3cccc(C4CCC(=O)NC4=O)c3Cl)cc2)c2cccnc21 (centres unmarked) | Dmax | % | 89.5 |
| CC(C)Nc1ccc(-c2cccc(C3CCC(=O)NC3=O)c2Cl)cc1 (centres unmarked) | Dmax | % | 68.2 |
| O=C1CCC(c2cccc(-c3ccc(-n4cccc(F)c4=O)cc3)c2Cl)C(=O)N1 (centres unmarked) | Dmax | % | 96 |
| O=C1CCC(c2cccc(-c3ccc(CN4CCC(F)C4=O)cc3)c2Cl)C(=O)N1 (centres unmarked) | Dmax | % | 86.7 |
| CN1CC(=O)N(c2ccc(-c3cccc(C4CCC(=O)NC4=O)c3Cl)cc2)c2cncnc21 (centres unmarked) | Dmax | % | 90.9 |
| [2H]c1c([2H])c(-n2ccccc2=O)c([2H])c([2H])c1-c1cccc(C2CCC(=O)NC2=O)c1Cl (centres unmarked) | Dmax | % | 95.5 |
| O=C1CCC(c2cccc(-c3ccc(CN4CCCCC4=O)nc3)c2Cl)C(=O)N1 (centres unmarked) | Dmax | % | 33.6 |

* * *

target: VAV1 (Homo sapiens, UniProt P15498+Q96SW2); construct: A heterozygous VAV1 C-terminal HiBiT knock-in pool was generated at Monte Rosa Therapeutics from a clonal Jurkat cell; endogenous in cells; host or cells: Jurkat clone stably expressing LgBiT, homozygous GSPT1-G575N; heterozygous VAV1-HiBiT knock-in pool; test: VAV1 degradation activity, VAV1-HiBiT knock-in Jurkat luminescence assay (Example A, Table 1); format: cell-based; conditions: Jurkat, VAV1-HiBiT knock-in Jurkat cells, luminescence read at 6 and 24 hours; read-out: VAV1 Dmax %, class

| Compound | Dmax |
| --- | --- |
| O=C1CCC(c2cccc(-c3ccc(Cn4ccccc4=O)cc3)c2Cl)C(=O)N1 (centres unmarked) | > 90% |
| O=C1CC[C@@H](c2cccc(-c3ccc(-n4ccccc4=O)cc3)c2Cl)C(=O)N1 | > 90% |
| Cn1ccc(-c2ccc(-c3cccc(C4CCC(=O)NC4=O)c3Cl)cc2)n1 (centres unmarked) | 60 to 90% |
| CC1CCN(Cc2ccc(-c3cccc(C4CCC(=O)NC4=O)c3Cl)cc2)C(=O)C1 (centres unmarked) | > 90% |
| Cn1ccc(COc2ncc(-c3cccc(C4CCC(=O)NC4=O)c3Cl)cn2)n1 (centres unmarked) | < 60% |
| CC(C)Nc1ccc(-c2cccc(C3CCC(=O)NC3=O)c2Cl)cc1 (centres unmarked) | 60 to 90% |
| O=C1CCC(c2cccc(-c3ccc(N4C(=O)CCC45CCC5)nc3)c2Cl)C(=O)N1 (centres unmarked) | 60 to 90% |
| O=C1CCC(c2cccc(-c3cnc(-n4ccccc4=O)c(F)c3)c2Cl)C(=O)N1 (centres unmarked) | 60 to 90% |

* * *

biological target: VAV1 (Homo sapiens, UniProt P15498+Q96SW2); construct: A heterozygous VAV1 C-terminal HiBiT knock-in pool was generated at Monte Rosa Therapeutics from a clonal Jurkat cell; endogenous in cells; host or cells: Jurkat clone stably expressing LgBiT, homozygous GSPT1-G575N; heterozygous VAV1-HiBiT knock-in pool; test: VAV1 degradation activity, VAV1-HiBiT knock-in Jurkat luminescence assay (Example A, Table 1); format: cell-based; conditions: VAV1-HiBiT knock-in Jurkat cells, luminescence read at 6 and 24 hours; read-out: VAV1 DC50 (nM), class
Endpoint: DC50

| Compound | Endpoint | Result |
| --- | --- | --- |
| O=C1CCC(c2cccc(-c3ccc(N4CCCN(CC(F)(F)F)C4=O)cc3)c2Cl)C(=O)N1 (centres unmarked) [Compound 449] | DC50 | ≤ 100 nM |
| O=C1CCC(c2cccc(-c3ccc(-n4cccnc4=O)cc3)c2Cl)C(=O)N1 (centres unmarked) [Compound 471] | DC50 | ≤ 100 nM |
| O=C1CCC(c2c(F)ccc(-c3ccc(Cn4ccccc4=O)cc3)c2F)C(=O)N1 (centres unmarked) [Compound 147] | DC50 | > 1000 nM |
| O=C1CCC(c2cccc(-c3ccc(OCc4cc[nH]n4)cc3)c2Cl)C(=O)N1 (centres unmarked) [Compound 203] | DC50 | ≤ 100 nM |
| CC1CN(Cc2ccc(-c3cccc(C4CCC(=O)NC4=O)c3Cl)cc2)C(=O)C(C)O1 (centres unmarked) [Compound 267] | DC50 | ≤ 100 nM |
| O=C1CCC(c2cccc(-c3ccc(N4C(=O)CCC45CCC5)nc3)c2Cl)C(=O)N1 (centres unmarked) [Compound 394] | DC50 | ≤ 100 nM |
| O=C1CCC(c2cccc(-c3cnc(-n4ccccc4=O)nc3)c2Cl)C(=O)N1 (centres unmarked) [Compound 474] | DC50 | > 1000 nM |
| O=C1CCC(c2cccc(-c3ccc(CN4C(=O)CC45CCOCC5)cc3)c2Cl)C(=O)N1 (centres unmarked) [Compound 278] | DC50 | ≤ 100 nM |
| O=C1CCC(c2cccc(-c3ccc(C(=O)N4CCCC4)cc3)c2Cl)C(=O)N1 (centres unmarked) [Compound 181] | DC50 | ≤ 100 nM |
| Nc1ccc(-c2cccc(C3CCC(=O)NC3=O)c2Cl)cc1OC(F)F (centres unmarked) [Compound 113] | DC50 | 100 to 1000 nM |
| CN1CCN(c2ccc(-c3cccc(C4CCC(=O)NC4=O)c3Cl)cc2)C(=O)C1 (centres unmarked) [Compound 331] | DC50 | ≤ 100 nM |
| Cc1cc(OCc2ccn(C)n2)ccc1-c1ccc(Cl)c(C2CCC(=O)NC2=O)c1 (centres unmarked) [Compound 152] | DC50 | > 1000 nM |
| O=C1CCC(c2cccc(-c3ccc(CN4CCCCC4=O)cc3)c2Cl)C(=O)N1 (centres unmarked) [Compound 168] | DC50 | ≤ 100 nM |
| O=C1CCC(c2cccc(-c3ccc(-n4cccc(C(F)(F)F)c4=O)cc3)c2Cl)C(=O)N1 (centres unmarked) [Compound 226] | DC50 | ≤ 100 nM |
| CC1(C)CN(c2cccc(-c3ccc(CC4CCC(=O)NC4=O)cc3Cl)c2)C(=O)CO1 (centres unmarked) [Compound 268] | DC50 | ≤ 100 nM |
| O=C1CCC(c2cccc(-c3ccc4c(c3)CC(=O)N4Cc3ncccn3)c2Cl)C(=O)N1 (centres unmarked) [Compound 393] | DC50 | ≤ 100 nM |
| O=C1CCC(c2cccc(-c3ccc(CN4Cc5nccn5CC4=O)cc3)c2Cl)C(=O)N1 (centres unmarked) [Compound 276] | DC50 | ≤ 100 nM |
